In this section, each of the molecules is paired with its reported Vertikaler Diffusionstest, Staphylococcus epidermidis 10^4.
# Test system: Staphylococcus epidermidis
# test.name: Vertical diffusion test (impregnated filter paper embedded in agar)
# Assay type: cell-based
# condition.info: 0,3 %; 0,2 ml/ 15,9 cm^2; 10^4 KBE/ml

The cases that follow already have their Vertikaler Diffusionstest, Staphylococcus epidermidis 10^4 on record.
1. CC(C)=CCC/C(C)=C\CC/C(C)=C\CO :: 0
2. CC(C)=CCC/C(C)=C\CC/C(C)=C/CO :: 0
3. CC(C)=CCCC(C)=CCCC(C)=CCO [Substanz 2, Farnesol, reference compound] :: 1 - 2

Kindly review the next molecule as well.
Notebook: CC(C)=CCC/C(C)=C/CC/C(C)=C\CO , Vertikaler Diffusionstest, Staphylococcus epidermidis 10^4 read as 0 - 1
